Quick reference for observed amide hydrogen exchange rate constant kobs among some substances
ASSAY_INFO: observed amide hydrogen exchange rate constant kobs (stretched exponential fit, FD-normalized) (s^-1); higher = faster H/D exchange (less protection)
CONDITION_DESCRIPTION: pH 3 (pH read); temperature: 20 °C; D2O: 88%
PARAMETER: observed amide hydrogen exchange rate constant kobs

| SUBSTANCE | NUMERIC_VALUE |
| --- | --- |
| AVELAANTK | 0.00114 |
| IYVGNLPPDIR | 0.00116 |
| HAVSEGTK | 0.00263 |
| ALAENSGVK | 0.00135 |
| ITLPVDFVTADKFDENAK | 0.0013 |
| EGGLGPLNIPLLADVTR | 0.000844 |
| IGEHTPSALAIMENANVLAR | 0.000813 |
| SNNVEMDWVLK | 0.000871 |
| IREEYPDR | 0.00399 |
| LTGMAFR | 0.00159 |
| EIIDLVLDR | 0.00103 |
| AIIIFVPVPQLK | 0.000266 |
| EGLELPEDEEEK | 0.00262 |
| PFLNGLTGKPVMVK | 0.000606 |
| GEGQLGPAER | 0.0023 |
| ALESPERPFLAILGGAK | 0.00092 |
| YLAEFATGNDRK | 0.0022 |
| GDEELDSLIK | 0.000999 |
| TFFSFPAVVAPFK | 0.000546 |
